# measured.on: NAMPT (Homo sapiens (Human))
# Sequence (P43490 whole entry, looked up): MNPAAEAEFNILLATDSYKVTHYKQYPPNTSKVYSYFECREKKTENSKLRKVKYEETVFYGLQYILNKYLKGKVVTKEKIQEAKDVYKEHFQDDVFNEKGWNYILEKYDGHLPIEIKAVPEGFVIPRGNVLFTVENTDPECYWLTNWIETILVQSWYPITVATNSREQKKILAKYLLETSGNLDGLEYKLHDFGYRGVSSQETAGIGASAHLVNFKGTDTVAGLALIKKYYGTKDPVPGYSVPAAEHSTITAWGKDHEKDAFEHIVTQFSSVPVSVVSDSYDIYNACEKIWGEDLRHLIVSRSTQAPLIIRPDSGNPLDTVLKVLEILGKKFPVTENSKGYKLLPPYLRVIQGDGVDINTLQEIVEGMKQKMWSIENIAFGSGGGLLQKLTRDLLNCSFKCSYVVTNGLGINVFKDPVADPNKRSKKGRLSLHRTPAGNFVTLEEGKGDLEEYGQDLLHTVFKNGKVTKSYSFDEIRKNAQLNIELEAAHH
metric: IC50 (nM)
One number for each entry, in nM.

For CC(C)CCC(=O)Nc1ccc(NC(=O)N2Cc3ccccc3C2)cc1 , write its IC50.
8.14
